test system: P-gp, BCRP, and MRP2; assay: mock screening of model drugs: ex vivo perfusion through porcine small intestine tissue after siRNA knockdown; conditions: transporter(s) found by siRNA knockdown perfusion screen
Where a name gives a salt, the structure may show the parent alone.
reportedEndpoint: Platform Target

## Input Looking for the measured Platform Target of CC(C)(C)NCC(O)c1cc(O)cc(O)c1 (centres unmarked) , can you help?
## Output no target

## Input Find the recorded Platform Target belonging to CC(C)(C)NCC(O)COc1cccc2c1CC(O)C(O)C2 (centres unmarked) and report it.
## Output BCRP

## Input Tell me the measured Platform Target of NC(=O)N1c2ccccc2C=Cc2ccccc21 [Carbamazepine] , please.
## Output Pgp & BCRP

## Input GET /values?readout=Platform Target&item= CN1C(C(=O)Nc2ccccn2)=C(O)c2ccccc2S1(=O)=O
## Output no target

## Input Can you share its Platform Target? I mean this compound: CCOc1nc2cccc(C(=O)OC(C)OC(=O)OC3CCCCC3)c2n1Cc1ccc(-c2ccccc2-c2nnn[nH]2)cc1 (centres unmarked)
## Output no target

Continuing:
## Input If you can, please state the reported Platform Target value of NCCC(O)(P(=O)(O)O)P(=O)(O)O [Pamidronate disodium salt hydrate] .
## Output Pgp

## Input Bench note: what Platform Target did O=c1ccc2ccccc2o1 show?
## Output Pgp

## Input Reported Platform Target for CC(=O)CC(c1ccccc1)c1c(O)c2ccccc2oc1=O (centres unmarked) : what is it?
## Output Pgp & BCRP

## Input What measured Platform Target goes with N[C@@H](Cc1ccccc1)C(=O)O ?
## Output no target
